Molecular target: L1196M mutant ALK kinase (Homo sapiens, UniProt Q9UM73, L1196M)
Sequence (Q9UM73 19-1620 L1196M): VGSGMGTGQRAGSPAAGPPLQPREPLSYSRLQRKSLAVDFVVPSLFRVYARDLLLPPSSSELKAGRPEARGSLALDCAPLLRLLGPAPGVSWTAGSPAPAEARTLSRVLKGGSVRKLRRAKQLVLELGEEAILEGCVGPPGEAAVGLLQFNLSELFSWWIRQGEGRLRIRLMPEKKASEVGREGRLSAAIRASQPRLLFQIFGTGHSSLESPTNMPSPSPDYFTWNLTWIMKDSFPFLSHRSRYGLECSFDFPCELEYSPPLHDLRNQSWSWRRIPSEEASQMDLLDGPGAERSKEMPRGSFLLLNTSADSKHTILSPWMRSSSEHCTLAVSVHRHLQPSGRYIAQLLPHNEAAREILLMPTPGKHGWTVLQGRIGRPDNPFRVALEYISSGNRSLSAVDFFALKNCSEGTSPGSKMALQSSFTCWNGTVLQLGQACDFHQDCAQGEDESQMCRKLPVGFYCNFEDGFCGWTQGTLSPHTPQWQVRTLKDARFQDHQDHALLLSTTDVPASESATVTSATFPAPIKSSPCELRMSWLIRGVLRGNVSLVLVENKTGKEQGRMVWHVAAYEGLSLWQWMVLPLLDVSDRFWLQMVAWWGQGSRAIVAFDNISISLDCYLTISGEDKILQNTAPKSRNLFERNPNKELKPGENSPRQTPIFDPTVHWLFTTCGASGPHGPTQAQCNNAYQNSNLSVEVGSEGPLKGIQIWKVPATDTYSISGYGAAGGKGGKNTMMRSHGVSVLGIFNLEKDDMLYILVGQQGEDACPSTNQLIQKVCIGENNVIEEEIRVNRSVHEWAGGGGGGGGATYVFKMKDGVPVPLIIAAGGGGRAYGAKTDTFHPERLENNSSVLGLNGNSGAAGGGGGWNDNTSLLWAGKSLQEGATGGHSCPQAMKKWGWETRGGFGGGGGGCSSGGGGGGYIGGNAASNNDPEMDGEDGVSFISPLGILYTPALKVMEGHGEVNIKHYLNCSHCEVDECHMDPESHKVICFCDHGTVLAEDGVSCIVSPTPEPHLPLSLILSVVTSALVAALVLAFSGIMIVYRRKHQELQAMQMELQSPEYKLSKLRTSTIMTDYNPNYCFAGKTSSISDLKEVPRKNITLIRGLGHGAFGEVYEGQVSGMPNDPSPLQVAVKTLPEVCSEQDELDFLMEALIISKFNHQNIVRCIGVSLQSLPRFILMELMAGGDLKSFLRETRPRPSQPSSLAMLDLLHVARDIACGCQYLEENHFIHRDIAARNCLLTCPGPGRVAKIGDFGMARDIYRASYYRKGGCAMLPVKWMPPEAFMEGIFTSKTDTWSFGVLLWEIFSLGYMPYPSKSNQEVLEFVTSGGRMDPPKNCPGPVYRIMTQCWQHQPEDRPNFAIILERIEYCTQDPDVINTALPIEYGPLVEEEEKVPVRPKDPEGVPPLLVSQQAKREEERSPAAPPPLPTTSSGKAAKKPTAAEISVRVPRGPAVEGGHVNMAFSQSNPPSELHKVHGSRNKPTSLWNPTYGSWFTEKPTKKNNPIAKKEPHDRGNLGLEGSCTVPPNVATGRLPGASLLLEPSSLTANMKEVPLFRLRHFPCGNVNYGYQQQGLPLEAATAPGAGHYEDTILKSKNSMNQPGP
Experiment: HTRF KinEASE-TK assay, inhibitory activity on L1196M mutant ALK kinase
Conditions: L1196M mutant ALK 1 ng/μl, substrate 1 μM, ATP 5 μM, 30° C. 35 minutes, read-out: Inhibition on ALK kinases (L1196M mutant), IC50
Protocol: 2. Inhibitory Activities of the Compounds of the Present Invention on L1196M Mutant ALK Kinases ? experimental method ? […] ? instrument ? Envision 2104 plate reader from PerKinElmer company. […] ? experimental condition ? […] The data was read from PerkinElmer EnVision plate reader ([…]), the 665/615 ratio was calculated, and the data was analyzed. […] ? data processing ? IC50 of compounds was calculated by using XLfit program in Excel.
Values of IC50 strictly less than 10 nM map to T, and values of at least 10 nM map to F.

structure-smiles-string	assigned-label
Cc1cc(Nc2ncc(Cl)c(Nc3cn(C)nc3S(=O)(=O)C(C)C)n2)c(OC2CC2)cc1[C@H]1CC[C@H](NC(C)C)CC1	T
Cc1cc(Nc2ncc(Cl)c(Nc3cn(C4CC4)nc3S(=O)(=O)C(C)C)n2)c(OC(C)C)cc1C1CCNCC1	F
Cc1cc(Nc2ncc(Cl)c(Nc3cn(C)nc3S(=O)(=O)C(C)C)n2)c(OC(C)C)cc1[C@H]1CC[C@H](NC(C)C)CC1	T
Cc1cc(Nc2ncc(Cl)c(Nc3cn(C)nc3S(=O)(=O)C(C)C)n2)c(OC(C)C)cc1C1CCNCC1	F
Cc1cc(Nc2ncc(Cl)c(Nc3cn(C)nc3S(=O)(=O)C(C)C)n2)c(OC(C)C)cc1C1CNC1	F
